Biological target: Human Cav3.1 calcium channel (Homo sapiens)
Construct: expressed in transfected cells; host or cells: HEK-293 natClytin/TASK1+Cav3.1 cell line
Sequence (O43497 whole entry): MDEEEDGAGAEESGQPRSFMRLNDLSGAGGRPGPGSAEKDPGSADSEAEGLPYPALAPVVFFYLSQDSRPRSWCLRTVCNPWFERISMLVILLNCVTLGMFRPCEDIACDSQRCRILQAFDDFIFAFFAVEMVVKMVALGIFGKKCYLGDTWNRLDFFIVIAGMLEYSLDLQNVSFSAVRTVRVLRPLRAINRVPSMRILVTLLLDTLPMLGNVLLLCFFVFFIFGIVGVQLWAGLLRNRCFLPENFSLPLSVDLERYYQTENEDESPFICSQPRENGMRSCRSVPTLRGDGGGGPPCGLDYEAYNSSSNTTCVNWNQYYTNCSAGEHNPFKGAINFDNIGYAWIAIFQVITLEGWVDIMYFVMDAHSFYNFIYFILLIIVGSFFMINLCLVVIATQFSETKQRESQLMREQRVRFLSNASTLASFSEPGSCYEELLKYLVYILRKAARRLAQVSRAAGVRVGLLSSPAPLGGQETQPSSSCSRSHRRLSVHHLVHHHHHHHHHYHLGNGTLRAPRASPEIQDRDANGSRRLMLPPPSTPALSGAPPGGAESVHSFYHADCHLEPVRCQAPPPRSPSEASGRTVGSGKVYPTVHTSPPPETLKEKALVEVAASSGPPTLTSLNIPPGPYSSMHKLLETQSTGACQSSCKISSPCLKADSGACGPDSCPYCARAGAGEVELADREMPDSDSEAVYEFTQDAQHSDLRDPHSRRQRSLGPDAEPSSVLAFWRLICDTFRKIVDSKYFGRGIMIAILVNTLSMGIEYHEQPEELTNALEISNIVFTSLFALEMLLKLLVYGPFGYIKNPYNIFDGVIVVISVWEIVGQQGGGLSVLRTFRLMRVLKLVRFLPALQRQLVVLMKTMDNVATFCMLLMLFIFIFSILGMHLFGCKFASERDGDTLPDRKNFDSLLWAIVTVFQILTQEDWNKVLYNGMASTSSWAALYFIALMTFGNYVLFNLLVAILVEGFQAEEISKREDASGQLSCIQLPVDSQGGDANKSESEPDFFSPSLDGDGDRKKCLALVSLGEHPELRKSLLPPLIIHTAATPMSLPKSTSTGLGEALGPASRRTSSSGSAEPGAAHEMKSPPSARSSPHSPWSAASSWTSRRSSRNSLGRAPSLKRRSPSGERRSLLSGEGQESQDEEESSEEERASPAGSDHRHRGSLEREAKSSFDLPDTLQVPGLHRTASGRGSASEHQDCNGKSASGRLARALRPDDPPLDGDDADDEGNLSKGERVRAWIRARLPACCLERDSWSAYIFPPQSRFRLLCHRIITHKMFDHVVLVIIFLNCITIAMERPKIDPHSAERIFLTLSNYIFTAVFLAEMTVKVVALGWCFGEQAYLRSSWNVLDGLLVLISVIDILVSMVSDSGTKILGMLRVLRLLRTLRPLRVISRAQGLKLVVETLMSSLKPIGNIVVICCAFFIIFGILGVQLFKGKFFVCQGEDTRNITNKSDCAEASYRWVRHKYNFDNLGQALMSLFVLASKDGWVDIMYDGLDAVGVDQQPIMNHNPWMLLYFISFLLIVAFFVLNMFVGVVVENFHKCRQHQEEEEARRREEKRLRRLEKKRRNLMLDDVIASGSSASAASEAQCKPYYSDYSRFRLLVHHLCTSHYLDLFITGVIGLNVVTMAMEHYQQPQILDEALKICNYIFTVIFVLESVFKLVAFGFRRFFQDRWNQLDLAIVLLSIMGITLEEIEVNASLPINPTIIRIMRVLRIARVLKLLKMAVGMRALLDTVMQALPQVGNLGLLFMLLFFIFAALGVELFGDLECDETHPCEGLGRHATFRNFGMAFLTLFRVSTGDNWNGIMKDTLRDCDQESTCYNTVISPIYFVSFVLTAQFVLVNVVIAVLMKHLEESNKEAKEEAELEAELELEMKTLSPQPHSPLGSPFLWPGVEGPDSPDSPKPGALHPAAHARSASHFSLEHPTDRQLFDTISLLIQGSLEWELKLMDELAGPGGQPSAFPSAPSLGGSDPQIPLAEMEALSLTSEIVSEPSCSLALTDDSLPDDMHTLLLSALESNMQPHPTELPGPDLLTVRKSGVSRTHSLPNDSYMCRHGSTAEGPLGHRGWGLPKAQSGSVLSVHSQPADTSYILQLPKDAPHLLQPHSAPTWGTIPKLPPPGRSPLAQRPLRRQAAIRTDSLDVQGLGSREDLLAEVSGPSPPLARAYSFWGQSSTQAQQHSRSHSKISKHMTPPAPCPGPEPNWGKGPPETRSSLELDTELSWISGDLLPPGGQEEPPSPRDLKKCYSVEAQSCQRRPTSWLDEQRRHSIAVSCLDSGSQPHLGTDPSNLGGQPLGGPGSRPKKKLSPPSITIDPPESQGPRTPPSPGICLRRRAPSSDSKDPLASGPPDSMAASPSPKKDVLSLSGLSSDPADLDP
Assay: Human Cav3.1 calcium channel patch clamp assay (SyncroPatch 384PE; single point and IC50, voltage dependent block)
Assay type: cell-based
Conditions: Testing Conc 1.25; HEK-293 natClytin/TASK1+Cav3.1 cell line, patch clamp
Protocol: Certain compounds (as indicated) were tested for Human Cav3.1 calcium channel activity via a patch clamp assay as disclosed herein. Pulse generation and data collection were performed with PatchController384 V1.3.0 and DataController384 V1.2.1 (Nanion Technologies). […] Current was recorded in whole cell configuration from a population of cells. […] Currents were recorded at room temperature. […]
outcomeMeasure: % Inhibition (Single Point Data) (%)

[
  {
    "molecule": "Fc1cc(Cl)c2nc(CN3CC4CCC(C3)N4CCN3CCC(F)(F)CC3)[nH]c2c1 [Compound 90]",
    "tgt": "Human Cav3.1 calcium channel (Homo sapiens)",
    "u": "%",
    "number": 99.043
  },
  {
    "molecule": "CC(C)Cc1cc(CNC(=O)CN2C[C@@H]3C[C@H]2CN3CC(=O)NC(C)(C)C)nn1-c1ccccc1 [Compound 302]",
    "tgt": "Human Cav3.1 calcium channel (Homo sapiens)",
    "u": "%",
    "number": 21.003
  },
  {
    "molecule": "CC(C)(C)NC(=O)CN1CC2CC1CN2CC(=O)Nc1cccc(Cl)c1 (centres unmarked) [Compound 131]",
    "tgt": "Human Cav3.1 calcium channel (Homo sapiens)",
    "u": "%",
    "number": 83.36
  },
  {
    "molecule": "COc1cc(F)cc(NC(=O)CN2CC3CC(C2)N3CC(=O)NC(C)(C)C)c1 [Compound 211]",
    "tgt": "Human Cav3.1 calcium channel (Homo sapiens)",
    "u": "%",
    "number": 81.284
  },
  {
    "molecule": "CC(C)(C)NC(=O)CN1C2CC1CN(c1nc3c(Cl)cc(F)cc3[nH]1)C2 [Compound 209]",
    "tgt": "Human Cav3.1 calcium channel (Homo sapiens)",
    "u": "%",
    "number": 24.65
  },
  {
    "molecule": "Fc1cc(Cl)c2nc(CN3CC4CC(C3)N4CC3CCC(F)(F)CC3)[nH]c2c1 [Compound 98]",
    "tgt": "Human Cav3.1 calcium channel (Homo sapiens)",
    "u": "%",
    "number": 92.211
  },
  {
    "molecule": "O=C(CN1CC2CC(C1)N2CC(F)C1CCCCC1)Nc1cc(F)cc(Cl)c1 (centres unmarked) [Compound 49]",
    "tgt": "Human Cav3.1 calcium channel (Homo sapiens)",
    "u": "%",
    "number": 44.843
  },
  {
    "molecule": "CC1(C(=O)NCCN2C3CC2CN(Cc2nc4c(Cl)cc(F)cc4[nH]2)C3)CCC1 [Compound 137]",
    "tgt": "Human Cav3.1 calcium channel (Homo sapiens)",
    "u": "%",
    "number": 96.095
  },
  {
    "molecule": "CC(C)(C)NC(=O)CN1C2CC1CN(Cc1nc3c(F)ccc(F)c3[nH]1)C2 [Compound 165]",
    "tgt": "Human Cav3.1 calcium channel (Homo sapiens)",
    "u": "%",
    "number": 87.314
  },
  {
    "molecule": "CN(C(=O)CN1C2CC1CN(Cc1nc3c(Cl)cc(F)cc3[nH]1)C2)C1(C)CCC1 [Compound 100]",
    "tgt": "Human Cav3.1 calcium channel (Homo sapiens)",
    "u": "%",
    "number": 88.827
  },
  {
    "molecule": "CC(C)(C)NC(=O)CN1C2CC1CN(CC(=O)NC13CC4CC(CC(F)(C4)C1)C3)C2 [Compound 315]",
    "tgt": "Human Cav3.1 calcium channel (Homo sapiens)",
    "u": "%",
    "number": 72.558
  },
  {
    "molecule": "O=C(CN1C2CCC1CN(Cc1nc3c(Cl)cc(F)cc3[nH]1)C2)N1CCC(O)CC1 [Compound 88]",
    "tgt": "Human Cav3.1 calcium channel (Homo sapiens)",
    "u": "%",
    "number": 61.278
  },
  {
    "molecule": "CCC(C)(C)NC(=O)CN1C2CCC1CN(Cc1nc3c(Cl)cc(F)cc3[nH]1)C2 [Compound 75]",
    "tgt": "Human Cav3.1 calcium channel (Homo sapiens)",
    "u": "%",
    "number": 99.169
  },
  {
    "molecule": "O=C(CN1CC2CC(C1)N2CC(=O)NC1(C(F)(F)F)CC1)Nc1cc(F)cc(Cl)c1 [Compound 170]",
    "tgt": "Human Cav3.1 calcium channel (Homo sapiens)",
    "u": "%",
    "number": 96.908
  },
  {
    "molecule": "CC(C)(C)NC(=O)CN1CCN(CC(=O)Nc2cc(F)cc(Cl)c2)C2(COC2)C1 [Compound 44]",
    "tgt": "Human Cav3.1 calcium channel (Homo sapiens)",
    "u": "%",
    "number": 50
  },
  {
    "molecule": "O[C@H]1CC[C@@H](OCCN2C3CC2CN(Cc2nc4c(Cl)cc(F)cc4[nH]2)C3)CC1 [Compound 132]",
    "tgt": "Human Cav3.1 calcium channel (Homo sapiens)",
    "u": "%",
    "number": 6.2687
  },
  {
    "molecule": "CC1(C)CC(CN2C3CCC2CN(Cc2nc4c(Cl)cc(F)cc4[nH]2)C3)CCO1 (centres unmarked) [Compound 96]",
    "tgt": "Human Cav3.1 calcium channel (Homo sapiens)",
    "u": "%",
    "number": 93.367
  }
]
